These measurements were taken from patent US9145425B2.

MIC values for the compounds below.
Tested on: Acinetobacter baumannii SR24396
Assay: Minimum Inhibitory Concentration (MIC), agar plate incubation, Japan Society for Chemotherapy standard method
Assay type: cell-based
Settings: Acinetobacter baumannii, SR24396, read-out: Minimum Inhibitory Concentration (MIC)
Procedure: The antimicrobial activity in vitro of the present compound (I) was determined. Measurement of Minimum Inhibitory Concentration (MIC, μg/ml) was conducted according to the standard method of the Japan Society for Chemotherapy and the amount of bacteria for inoculation was 1000 cfu/spot, and sensitive disc medium was used as the test medium, and conducted using agar plate incubation. In the tables, the unit of the values of inhibitory activity is μg/ml.

COMPOUND	MIC
CC(C)(O/N=C(\C(=O)N[C@@H]1C(=O)N2C(C(=O)O)=C(C[N+]3(C)[C@@H]4CC[C@H]3C[C@@H](NC(=O)c3cc(O)c(O)c(Cl)c3)C4)CS[C@H]12)c1csc(N)n1)C(=O)[O-] (stereo partly shown)	0.25 µg/mL

Query: I have this compound here, CC(C)(O/N=C(\C(=O)N[C@@H]1C(=O)N2C(C(=O)O)=C(C[N@+]3(C)[C@@H]4CC[C@H]3C[C@@H](NC(=O)c3cc(F)c(O)c(O)c3F)C4)CS[C@H]12)c1csc(N)n1)C(=O)[O-] , and I need its recorded MIC.
Response: 0.125 µg/mL

Query: I have this compound here, CC(C)(O/N=C(\C(=O)N[C@@H]1C(=O)N2C(C(=O)O)=C(C[N+]34CCCC3(CNC(=O)c3ccc(O)c(O)c3Cl)CCC4)CS[C@H]12)c1csc(N)n1)C(=O)[O-] (stereo partly shown) , and I need its recorded MIC.
Response: 0.25 µg/mL

Query: I have this compound here, CC(C)(O/N=C(\C(=O)N[C@@H]1C(=O)N2C(C(=O)O)=C(C[N+]3(C)[C@@H]4CC[C@H]3C[C@@H](NC(=O)c3cc(O)c(O)cc3Cl)C4)CS[C@H]12)c1csc(N)n1)C(=O)[O-] (stereo partly shown) , and I need its recorded MIC.
Response: 0.25 µg/mL
